# Test system: A2058 (human metastatic melanoma cells, Rb-negative)
# Experiment Description: Cellular proliferation assay (CellTiter-Glo), A2058
# Format: cell-based
# Measurement Parameters: A2058, 144 h, cell viability after six days
pEC50: −log10 of the molar value.
Readout Type: pEC50

Example results:
C[C@@H]1CN(c2ccc(Nc3ncc4cc5n(c4n3)C3(CCCCC3)CNC5=O)nc2)C[C@H](C)N1C[C@@H](C)O = < 5.52
CC1CCN(C2CCN(c3ccc(Nc4ncc5cc6n(c5n4)C4(CCCCC4)CNC6=O)nc3)CC2)C1 (stereo not drawn) = 5.75
C[C@H]1CN(c2ccc(Nc3ncc4cc5n(c4n3)C3(CCCCC3)CNC5=O)nc2)CCN1 = 5.86

## Task Entry `O=C1NCC2(CCCCC2)n2c1cc1cnc(Nc3ccc(N4CCC(N5CCCCC5)CC4)cn3)nc12` : reported pEC50 = ?
## Result 5.84

## Task Would you kindly share the measured pEC50 for `CC1(C)CN(c2ccc(Nc3ncc4cc5n(c4n3)C3(CCCCC3)CNC5=O)nc2)CCN1C1CC1` ?
## Result 5.79

## Task What does the record list as pEC50 for `CC(C)N1CCN(C(=O)c2ccc(Nc3ncc4cc5n(c4n3)C3(CCCCC3)CNC5=O)nc2)CC1` ?
## Result < 5.52

## Task What value of measured pEC50 is listed for `CC(C)(O)CN1CCN(c2ccc(Nc3ncc4cc5n(c4n3)C3(CCCC3)CNC5=O)nc2)CC1` ?
## Result < 5.52

## Task Look up pEC50: CCN(CC)C1CCN(C(=O)c2ccc(Nc3ncc4cc5n(c4n3)C3(CCCCC3)CNC5=O)nc2)C1 (stereo not drawn)
## Result < 5.52

Each recorded value in this set is attributed to patent US12285431B2.
